# Protocol notes: In vivo kinetics experiment (radioactivity distribution)
# Set-up: species or system Wistar male rat
# Condition details: rat, caudal vein, 30 min after administration
Radioactivity distribution Spleen below 5 % ID/g gives rule not met; Radioactivity distribution Spleen at or above it gives rule met.

{"Compound": "Fc1cc2nc(-c3cncc(Cn4ccnc4)c3)n(CC[18F])c2cc1Br [[^18F] 200]", "Assigned class": "rule not met"}

Asked: Does Fc1cc2nc(-c3cncc(Cn4ccnc4)c3)n(CC[18F])c2cc1Cl [[^18F] 100] have a reported Radioactivity distribution Spleen of at least 5 % ID/g?
Given back: rule not met

Asked: Subsequent entry: [123I]c1ccc2nc(-c3cncc(Cn4ccnc4)c3)n(C3CC3)c2c1 [[^123I] 602]
Given back: rule met

Asked: Subsequent entry: Fc1cc2nc(-c3cncc(Cn4ccnc4)c3)n(CCC[18F])c2cc1Cl [[^18F] 500]
Given back: rule not met

Asked: Subsequent entry: FCCn1c(-c2cncc(Cn3ccnc3)c2)nc2cc(F)c([123I])cc21 [[^123I] 400]
Given back: rule met

Asked: Subsequent entry: [123I]c1ccc2nc(-c3cncc(Cn4ccnn4)c3)n(C3CC3)c2c1 [[^123I] 603]
Given back: rule met

====

# Protocol notes: In vivo kinetics experiment (radioactivity distribution)
# Set-up: species or system Wistar male rat
# Condition details: rat, caudal vein, 60 min after administration
# Radioactivity distribution Testis listing for each entry below
# unit: % ID/g | format: bare number

{"Compound": "[123I]c1ccc2nc(-c3cncc(Cn4ccnc4)c3)n(C3CC3)c2c1 [[^123I] 602]", "Radioactivity distribution Testis (% ID/g)": 0.15}
{"Compound": "[123I]c1ccc2nc(-c3cncc(Cn4ccnn4)c3)n(C3CC3)c2c1 [[^123I] 603]", "Radioactivity distribution Testis (% ID/g)": 0.05}
{"Compound": "Fc1cc2nc(-c3cncc(Cn4ccnc4)c3)n(CCC[18F])c2cc1Cl [[^18F] 500]", "Radioactivity distribution Testis (% ID/g)": 0.11}

Asked: Fill blank: measured Radioactivity distribution Testis of the compound Fc1cc2nc(-c3cncc(Cn4ccnc4)c3)n(CC[18F])c2cc1Cl [[^18F] 100] is ____.
Given back: 0.08

Asked: Subsequent entry: FCCn1c(-c2cncc(Cn3ccnc3)c2)nc2cc(F)c([123I])cc21 [[^123I] 400]
Given back: 0.15

Asked: Subsequent entry: Fc1cc2nc(-c3cncc(Cn4ccnc4)c3)n(CC[18F])c2cc1Br [[^18F] 200]
Given back: 0.09

====

# Protocol notes: In vivo kinetics experiment (radioactivity distribution)
# Set-up: species or system Wistar male rat
# Condition details: rat, caudal vein, 10 min after administration
Decision: Radioactivity distribution Liver beneath 4 % ID/g gives criterion met; Radioactivity distribution Liver meeting or exceeding 4 % ID/g gives criterion not met.

{"Molecule": "[123I]c1ccc2nc(-c3cncc(Cn4ccnc4)c3)n(C3CC3)c2c1 [[^123I] 602]", "Assigned class": "criterion met"}
{"Molecule": "Fc1cc2nc(-c3cncc(Cn4ccnc4)c3)n(CCC[18F])c2cc1Cl [[^18F] 500]", "Assigned class": "criterion not met"}
{"Molecule": "FCCn1c(-c2cncc(Cn3ccnc3)c2)nc2cc(F)c([123I])cc21 [[^123I] 400]", "Assigned class": "criterion met"}
{"Molecule": "Fc1cc2nc(-c3cncc(Cn4ccnc4)c3)n(CC[18F])c2cc1Br [[^18F] 200]", "Assigned class": "criterion not met"}

Asked: Criterion: Radioactivity distribution Liver strictly below 4 % ID/g. Is it met by Fc1cc2nc(-c3cncc(Cn4ccnc4)c3)n(CC[18F])c2cc1Cl [[^18F] 100] ?
Given back: criterion not met

====

# Protocol notes: In vivo kinetics experiment (radioactivity distribution)
# Design: species or system Wistar male rat
# Condition details: 30 min after administration; rat i.v.; mean ± SD
Measured parameter: Radioactivity distribution Adrenal gland (% ID/g)
# unit: % ID/g | format: bare number

Example compounds with recorded Radioactivity distribution Adrenal gland:
{"Compound": "FCCn1c(-c2cncc(Cn3ccnc3)c2)nc2ccc([123I])cc21 [[^123I] 604]", "Radioactivity distribution Adrenal gland (% ID/g)": 15.46}
{"Compound": "CC(C)n1c(-c2cncc(Cn3ccnc3)c2)nc2ccc([123I])cc21 [[^123I] 606]", "Radioactivity distribution Adrenal gland (% ID/g)": 21.23}
{"Compound": "Cn1c(-c2cncc(Cn3ccnc3)c2)nc2ccc([123I])cc21 [[^123I] 607]", "Radioactivity distribution Adrenal gland (% ID/g)": 14.61}
{"Compound": "COc1cc([123I])cc2c1nc(-c1cncc(Cn3ccnc3)c1)n2C1CC1 [[^123I] 609]", "Radioactivity distribution Adrenal gland (% ID/g)": 11.21}
{"Compound": "Fc1cc2nc(-c3cncc(Cn4ccnc4)c3)n(Cc3ccc([123I])cc3)c2cc1Cl [[^123I] 605]", "Radioactivity distribution Adrenal gland (% ID/g)": 3.10}

Asked: Fill blank: measured Radioactivity distribution Adrenal gland of the compound COC(=O)c1cncn1[C@H](C)c1ccc(I)cc1 [[^123I] IMTO, (R)-[^123I]iodometomidate, reference compound] is ____.
Given back: 17.66

Asked: Subsequent entry: CCn1c(-c2cncc(Cn3ccnc3)c2)nc2ccc([123I])cc21 [[^123I] 608]
Given back: 10.75

Asked: Subsequent entry: FCCn1c(-c2cncc(Cn3cncc3[123I])c2)nc2cc(F)c(Cl)cc21 [[^123I] 610]
Given back: 15.71

====

# Protocol notes: In vivo kinetics experiment (radioactivity distribution)
# Set-up: species or system Wistar male rat
# Condition details: 10 min after administration; rat i.v.; mean ± SD
Measured parameter: Radioactivity distribution Kidney (% ID/g)
# unit: % ID/g | format: bare number

Example compounds with recorded Radioactivity distribution Kidney:
{"Compound": "Fc1cc2nc(-c3cncc(Cn4ccnc4)c3)n(Cc3ccc([123I])cc3)c2cc1Cl [[^123I] 605]", "Scale unit": "% ID/g", "Radioactivity distribution Kidney": 2.17}
{"Compound": "FCCn1c(-c2cncc(Cn3ccnc3)c2)nc2ccc([123I])cc21 [[^123I] 604]", "Scale unit": "% ID/g", "Radioactivity distribution Kidney": 2.09}
{"Compound": "COc1cc([123I])cc2c1nc(-c1cncc(Cn3ccnc3)c1)n2C1CC1 [[^123I] 609]", "Scale unit": "% ID/g", "Radioactivity distribution Kidney": 1.17}

Continue with the next compound.
Asked: Fill blank: measured Radioactivity distribution Kidney of the compound COC(=O)c1cncn1[C@H](C)c1ccc(I)cc1 [[^123I] IMTO, (R)-[^123I]iodometomidate, reference compound] is ____.
Given back: 0.70

====

# Protocol notes: In vivo kinetics experiment (radioactivity distribution)
# Set-up: species or system Wistar male rat
# Condition details: 10 min after administration; rat i.v.; mean ± SD
# Radioactivity distribution Blood listing for each entry below
# unit: % ID/g | format: bare number

Example molecules with recorded Radioactivity distribution Blood:
{"Molecule": "Cn1c(-c2cncc(Cn3ccnc3)c2)nc2ccc([123I])cc21 [[^123I] 607]", "Measured parameter": "Radioactivity distribution Blood", "Scale unit": "% ID/g", "Result": 0.17}
{"Molecule": "COC(=O)c1cncn1[C@H](C)c1ccc(I)cc1 [[^123I] IMTO, (R)-[^123I]iodometomidate, reference compound]", "Measured parameter": "Radioactivity distribution Blood", "Scale unit": "% ID/g", "Result": 1.40}

Asked: Fill blank: measured Radioactivity distribution Blood of the molecule CCn1c(-c2cncc(Cn3ccnc3)c2)nc2ccc([123I])cc21 [[^123I] 608] is ____.
Given back: 0.12

Asked: Subsequent entry: Fc1cc2nc(-c3cncc(Cn4ccnc4)c3)n(Cc3ccc([123I])cc3)c2cc1Cl [[^123I] 605]
Given back: 0.14

Asked: Subsequent entry: FCCn1c(-c2cncc(Cn3ccnc3)c2)nc2ccc([123I])cc21 [[^123I] 604]
Given back: 0.13

Asked: Subsequent entry: COc1cc([123I])cc2c1nc(-c1cncc(Cn3ccnc3)c1)n2C1CC1 [[^123I] 609]
Given back: 0.12

Asked: Subsequent entry: FCCn1c(-c2cncc(Cn3cncc3[123I])c2)nc2cc(F)c(Cl)cc21 [[^123I] 610]
Given back: 0.46

Asked: Subsequent entry: CC(C)n1c(-c2cncc(Cn3ccnc3)c2)nc2ccc([123I])cc21 [[^123I] 606]
Given back: 0.15

====

# Protocol notes: In vivo kinetics experiment (radioactivity distribution)
# Parameters: species or system Wistar male rat
# Condition details: rat, caudal vein, 30 min after administration
Decision: Radioactivity distribution Large intestine beneath 0.2 % ID/g gives true (1); Radioactivity distribution Large intestine meeting or exceeding 0.2 % ID/g gives false (0).

Solved cases below.
{"Compound": "[123I]c1ccc2nc(-c3cncc(Cn4ccnn4)c3)n(C3CC3)c2c1 [[^123I] 603]", "Assigned class": "true (1)"}
{"Compound": "[123I]c1ccc2nc(-c3cncc(Cn4ccnc4)c3)n(C3CC3)c2c1 [[^123I] 602]", "Assigned class": "true (1)"}
{"Compound": "FCCn1c(-c2cncc(Cn3ccnc3)c2)nc2cc(F)c([123I])cc21 [[^123I] 400]", "Assigned class": "true (1)"}
{"Compound": "Fc1cc2nc(-c3cncc(Cn4ccnc4)c3)n(CC[18F])c2cc1Br [[^18F] 200]", "Assigned class": "false (0)"}

Asked: Criterion: Radioactivity distribution Large intestine strictly below 0.2 % ID/g. Is it met by Fc1cc2nc(-c3cncc(Cn4ccnc4)c3)n(CCC[18F])c2cc1Cl [[^18F] 500] ?
Given back: false (0)

Measured values drawn from patent US10358434B2 for this set.
